Numbers sourced from the RepoRT retention time repository (doi:10.1021/acs.analchem.2c02893).

# EXPERIMENT_DESCRIPTION: RP, Waters ACQUITY UPLC BEH C18, 100 × 2.1 mm, 1.7 µm, 30 °C, 0.35 mL/min, estimated dead time 0.63 min; A: water + 0.01% formic acid + 5 mM ammonium formate, pH 3.71; B: acetonitrile + 0.01% formic acid, pH 3.71; gradient (min/%B) 0/10 3/10 22/100 30/100 30.1/10 40/10
# PARTICULARS: stereoisomer not certain
This section presents compounds with their documented log10(LC retention time) values.
On a log10 scale: recorded LC retention time, unit min.

Guide cases for log10(LC retention time), answers given:
Suppose we examine the compound CCN(C)C(=O)Oc1cccc(C(C)N(C)C)c1 (centres undefined) ; what log10(LC retention time) value has been reported?
0.81

Suppose we examine the compound CC(N)C12CC3CC(CC(C3)C1)C2 (centres undefined) ; what log10(LC retention time) value has been reported?
0.90

Suppose we examine the compound CCC(C)OC(=O)N1CCCCC1CCO (centres undefined) ; what log10(LC retention time) value has been reported?
1.03

Suppose we examine the compound COc1cc(Cc2cnc(N)nc2N)cc(OC)c1OC ; what log10(LC retention time) value has been reported?
0.65

Suppose we examine the compound CC(C)NCC(O)c1ccc(N)c(C#N)c1 (centres undefined) ; what log10(LC retention time) value has been reported?
0.17

Suppose we examine the compound CCCCC(CC)COC(=O)C(C#N)=C(c1ccccc1)c1ccccc1 (centres undefined) ; what log10(LC retention time) value has been reported?
1.30

Suppose we examine the compound NC(=O)c1ccccc1Oc1ccccc1 [Phenoxybenzamide] ; what log10(LC retention time) value has been reported?
1.06

Suppose we examine the compound N#CSCSc1nc2ccccc2s1 ; what log10(LC retention time) value has been reported?
1.13

Others:
Suppose we examine the compound COP(=O)(OC)C(O)C(Cl)(Cl)Cl (centres undefined) ; what log10(LC retention time) value has been reported?
0.73

Suppose we examine the compound C[N+](C)(C)CCCl [Chlormequate] ; what log10(LC retention time) value has been reported?
-0.08

Suppose we examine the compound Nc1ncn[nH]1 ; what log10(LC retention time) value has been reported?
-0.04

Suppose we examine the compound CN(C)CC1CCCCC1(O)c1cccc(O)c1 (centres undefined) ; what log10(LC retention time) value has been reported?
0.55

Suppose we examine the compound CCOc1ccc(NC(C)=O)cc1 ; what log10(LC retention time) value has been reported?
0.88

Suppose we examine the compound NCCc1cnc[nH]1 ; what log10(LC retention time) value has been reported?
0.00

Suppose we examine the compound O=P(Oc1ccccc1)(Oc1ccccc1)Oc1ccccc1 [Phosphate-Triphenyl] ; what log10(LC retention time) value has been reported?
1.19

Suppose we examine the compound CC(=O)Nc1ccc(O)cc1 ; what log10(LC retention time) value has been reported?
0.20

Suppose we examine the compound CCNC(C)Cc1cccc(C(F)(F)F)c1 (centres undefined) ; what log10(LC retention time) value has been reported?
0.93

Suppose we examine the compound CC(C)Cc1ccc(C(C)C(=O)O)cc1 (centres undefined) ; what log10(LC retention time) value has been reported?
1.15

Suppose we examine the compound CN1CCC23c4c5ccc(O)c4OC2C(O)C=CC3C1C5 (centres undefined) ; what log10(LC retention time) value has been reported?
0.08
